# ASSAY_INFO: Aqueous solubility at pH 7.4
# PARTICULARS: aqueous
MEASUREMENT_TYPE: solubility (µg/mL)
Respond numerically; units are µg/mL and should not be typed.

Examples from the recorded data:
Data request: What does the data say about its solubility? Entry: CC(C)OC(=O)C1CN(C(=O)c2ccc(C#N)cc2)CC(C)(C)c2cc(C#N)[nH]c21 (stereo not drawn)
Data returned: 21

Data request: CC(C)OC(=O)C1CN(C(=O)c2cccc(Cl)c2)CC(C)(C)c2cc(C#N)[nH]c21 (stereo not drawn) , same question.
Data returned: 17

Data request: CC(C)OC(=O)C1CN(C(=O)c2ccc(Cl)cc2)CC(C)(C)c2cc(C#N)[nH]c21 (stereo not drawn) , same question.
Data returned: 5

Turning now to a further record.
Data request: What does the data say about its solubility? Entry: CC(C)OC(=O)C1CN(C(=O)c2ccc(F)c(F)c2)CC(C)(C)c2cc(C#N)[nH]c21 (stereo not drawn)
Data returned: 31

* * *

# EXPERIMENTAL_SYSTEM: Bile acid receptor (Homo sapiens)
# Sequence (Q96RI1 whole entry): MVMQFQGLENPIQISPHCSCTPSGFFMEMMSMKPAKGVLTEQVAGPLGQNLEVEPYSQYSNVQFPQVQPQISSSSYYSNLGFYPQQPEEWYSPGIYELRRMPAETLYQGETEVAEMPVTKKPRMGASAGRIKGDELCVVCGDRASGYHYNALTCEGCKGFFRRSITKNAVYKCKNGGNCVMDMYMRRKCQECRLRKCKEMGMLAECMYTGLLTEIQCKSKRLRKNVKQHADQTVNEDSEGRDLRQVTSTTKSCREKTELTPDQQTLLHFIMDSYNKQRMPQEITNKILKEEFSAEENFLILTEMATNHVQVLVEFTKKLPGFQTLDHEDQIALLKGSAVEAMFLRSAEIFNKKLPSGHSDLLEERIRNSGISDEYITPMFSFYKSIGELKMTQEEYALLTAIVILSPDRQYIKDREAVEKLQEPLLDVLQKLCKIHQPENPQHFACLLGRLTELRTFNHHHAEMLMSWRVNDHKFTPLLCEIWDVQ
Listing of entries alongside the reported EC50.

Data request: What does the data say about its EC50? Entry: "CC(C)OC(=O)C1=CN(C(=O)c2cccs2)CC(C)(C)c2cc(C#N)[nH]c21"
Data returned: 16 nM

Data request: "CC(C)OC(=O)C1=CN(C(=O)c2cccc(C(F)(F)F)c2)CC(C)(C)c2cc(C#N)[nH]c21" , same question.
Data returned: 8.5 nM

Data request: "CC(C)OC(=O)C1=CN(C(=O)c2ccc(F)c(F)c2)CC(C)(C)c2cc(C#N)[nH]c21" , same question.
Data returned: 6.3 nM

The measured values listed here are drawn from ChEMBL document CHEMBL1155995.
